Measured residual activity accompanies every entry in the list below.
molecular target: TGFBR1 (human) (UniProt P36897); assay: radiometric filter-binding kinase assay, Kinase HotSpot; settings: compound 0.5 µM; ATP 10 µM
Sequence (P36897 whole entry, looked up): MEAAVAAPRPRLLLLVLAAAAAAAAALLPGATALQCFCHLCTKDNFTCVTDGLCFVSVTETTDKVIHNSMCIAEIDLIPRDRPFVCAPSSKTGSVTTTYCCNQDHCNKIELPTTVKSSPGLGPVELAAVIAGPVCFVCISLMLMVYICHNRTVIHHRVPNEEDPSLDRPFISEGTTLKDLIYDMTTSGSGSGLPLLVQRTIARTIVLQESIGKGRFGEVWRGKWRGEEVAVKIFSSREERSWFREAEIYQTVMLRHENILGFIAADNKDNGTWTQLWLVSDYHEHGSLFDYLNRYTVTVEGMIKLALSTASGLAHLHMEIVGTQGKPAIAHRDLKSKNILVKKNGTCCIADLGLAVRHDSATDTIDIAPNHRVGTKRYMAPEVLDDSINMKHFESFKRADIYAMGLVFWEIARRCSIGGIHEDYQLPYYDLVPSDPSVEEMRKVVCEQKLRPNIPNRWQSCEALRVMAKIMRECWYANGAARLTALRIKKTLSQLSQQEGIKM
Write the number in % without appending the unit.

SMILES_NOTATION | residual activity [%]
O=C1NC(=O)C(c2c[nH]c3ccccc23)=C1c1c[nH]c2ccccc12 | 96.6
CN(C)C[C@H]1CCn2c(c(C3=C(c4cn(C)c5ccccc45)C(=O)NC3=O)c3ccccc32)C1 | 99.8
Oc1ccc(Nc2nc(-c3ccc(Cl)cc3)cs2)cc1 | 99.9
O=C(Nc1cccc(Nc2cc(Nc3cccc(C(F)(F)F)c3)ncn2)c1)C1CC1 | 97.4
Cc1nc2cc3nc(-c4cccs4)cnc3cc2n1C | 98.7
CC(=O)O/N=C1\C(=C2\C(=O)Nc3cc(Br)ccc32)Nc2ccccc21 | 101

Now for the compound whose residual activity we want.
Ask | Could you share which residual activity value was measured for O=C(CCCc1ccc(-c2ccccc2F)cc1)Nc1ccc(O)cc1 ?
Reply | 102

###

Measured residual activity accompanies every entry in the list below.
molecular target: CDK7 CCNH MNAT1 (human) (UniProt P50613+P51948+P51946); assay: radiometric filter-binding kinase assay, Kinase HotSpot; settings: compound 0.5 µM; ATP 10 µM
Sequence (P50613 whole entry, looked up): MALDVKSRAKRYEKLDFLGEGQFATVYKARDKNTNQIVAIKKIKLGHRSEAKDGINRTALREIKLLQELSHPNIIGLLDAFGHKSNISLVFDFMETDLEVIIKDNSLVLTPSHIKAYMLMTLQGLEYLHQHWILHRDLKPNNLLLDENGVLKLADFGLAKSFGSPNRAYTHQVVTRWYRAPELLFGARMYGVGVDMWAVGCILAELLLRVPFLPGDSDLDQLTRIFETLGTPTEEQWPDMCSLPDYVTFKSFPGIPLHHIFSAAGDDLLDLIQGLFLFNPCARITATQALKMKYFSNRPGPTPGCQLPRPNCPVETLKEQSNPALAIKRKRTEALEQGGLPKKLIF
Sequence (P51946 whole entry, looked up): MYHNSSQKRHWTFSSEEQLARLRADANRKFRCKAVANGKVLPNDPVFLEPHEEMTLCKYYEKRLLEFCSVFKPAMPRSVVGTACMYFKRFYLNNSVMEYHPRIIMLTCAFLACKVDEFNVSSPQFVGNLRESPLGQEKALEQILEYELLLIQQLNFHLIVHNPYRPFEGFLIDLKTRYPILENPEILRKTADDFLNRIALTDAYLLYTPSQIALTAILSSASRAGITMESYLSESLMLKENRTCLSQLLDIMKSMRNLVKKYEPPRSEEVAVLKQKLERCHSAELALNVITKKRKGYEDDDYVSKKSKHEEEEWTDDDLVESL
Sequence (P51948 whole entry, looked up): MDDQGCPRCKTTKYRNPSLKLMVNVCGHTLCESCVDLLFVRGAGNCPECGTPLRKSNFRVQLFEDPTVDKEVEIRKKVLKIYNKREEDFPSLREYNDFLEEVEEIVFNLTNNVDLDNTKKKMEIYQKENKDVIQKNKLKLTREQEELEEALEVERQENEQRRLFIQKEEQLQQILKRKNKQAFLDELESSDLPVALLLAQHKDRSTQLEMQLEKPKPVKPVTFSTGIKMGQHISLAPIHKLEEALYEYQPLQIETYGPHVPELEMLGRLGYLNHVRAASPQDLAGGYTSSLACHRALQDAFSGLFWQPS
Write the number in % without appending the unit.

SMILES_NOTATION | TGT | REPORTED_ENDPOINT | OBSERVED_RESULT
Cc1nc2cc3nc(-c4cccs4)cnc3cc2n1C | CDK7 CCNH MNAT1 (human) (UniProt P50613+P51948+P51946) | residual activity | 102
O=C1Cc2c([nH]c3ccc(Br)cc23)-c2ccccc2N1 | CDK7 CCNH MNAT1 (human) (UniProt P50613+P51948+P51946) | residual activity | 95.1
Cn1sc(=O)n(Cc2ccccc2)c1=O | CDK7 CCNH MNAT1 (human) (UniProt P50613+P51948+P51946) | residual activity | 96.8
Cn1cnc2cc3c(Nc4cccc(Br)c4)ncnc3cc21 | CDK7 CCNH MNAT1 (human) (UniProt P50613+P51948+P51946) | residual activity | 99.5
O=C(CCCc1ccc(-c2ccccc2F)cc1)Nc1ccc(O)cc1 | CDK7 CCNH MNAT1 (human) (UniProt P50613+P51948+P51946) | residual activity | 101

Ask | Could you share which residual activity value was measured for COc1ccc(CNC(=O)Nc2ncc([N+](=O)[O-])s2)cc1 ?
Reply | 94.8

Ask | Could you share which residual activity value was measured for O=C1NC(=O)C(c2c[nH]c3ccccc23)=C1c1c[nH]c2ccccc12 ?
Reply | 94.4

Ask | Could you share which residual activity value was measured for Nc1nccc(-c2c(-c3ccc(F)cc3)ncn2C2CCNCC2)n1 ?
Reply | 98.9

Ask | Could you share which residual activity value was measured for O=C1NC(=O)C(c2cn(CCCO)c3ncccc23)=C1c1cnccn1 ?
Reply | 96.9

Ask | Could you share which residual activity value was measured for Oc1ccc(Nc2nc(-c3ccc(Cl)cc3)cs2)cc1 ?
Reply | 96.3

Ask | Could you share which residual activity value was measured for CN([C@@H](Cc1ccc(OS(=O)(=O)c2cccc3cnccc23)cc1)C(=O)N1CCN(c2ccccc2)CC1)S(=O)(=O)c1cccc2cnccc12 ?
Reply | 99.4

Ask | Could you share which residual activity value was measured for CC(C)[C@H](CO)Nc1nc(Nc2cc(N)cc(Cl)c2)c2ncn(C(C)C)c2n1 ?
Reply | 54.7

Ask | Could you share which residual activity value was measured for CC(=O)O/N=C1\C(=C2\C(=O)Nc3cc(Br)ccc32)Nc2ccccc21 ?
Reply | 91.1
